method: HepG2 liver cancer cell viability effects, profiling panel, resazurin fluorescence, 24 h, PK04 Diversity Set (AID 1172); further: test concentration not given here
run-parameters: higher = more signal
experimental-readout: z-score

compound	measured-value
C#CCCCON=C1C[C@@H](O)[C@@H](O)[C@@H]2[C@@H]3C(=O)N(c4cccc(Oc5ccccc5)c4)C(=O)[C@@H]3CC[C@H]12	0.331
O=C1[C@H]2[C@H]3[C@H](O)[C@H](O)CC(=NOCc4ccccc4)[C@@H]3CC[C@H]2C(=O)N1Cc1ccc2c(c1)OCO2	1.03
O=C1C=C[C@@H](O)[C@@H]2[C@@H]3C(=O)N(C[C@@H]4CCCO4)C(=O)[C@@H]3CC[C@@H]12	0.111
CO[C@@H]1COC(=O)CC=C[C@H](C)[C@H](OC)COC(=O)[C@H](C)NC(=O)CC=C[C@H]1C	0.774
COCOc1ccc(Br)cc1C(=O)[C@@H]1O[C@H]1c1cccc(OC)c1	-0.0514
COc1cccc([C@H]2Oc3ccc(OC)cc3C(=NOC[C@@H](O)[C@H]3O[C@@H]4OC(C)(C)O[C@@H]4[C@H]3O)[C@@H]2O)c1	-0.791
CCOC(=O)[C@H](Cc1ccccc1)NC(=O)CCC1CC(OC(=O)NCCc2ccc(F)cc2)CC2(CCCC(COC(=O)NCCOC)O2)O1 (stereo partly drawn)	-0.154
CCC1=NOC(CCC2CC(OC(=O)NCc3cccc4c3OCO4)CC3(CCCC(COC(=O)NCCc4ccccc4OC)O3)O2)C1 (stereo not drawn)	-0.211
CC(C)=CCCC(C)=CCON=C1C[C@@H](O)[C@@H](O)[C@@H]2[C@@H]3C(=O)N(C(C)(C)C)C(=O)[C@@H]3CC[C@H]12	-0.369
CO[C@@H]1COC(=O)CC=C[C@@H](C)[C@@H]2C=C[C@H](O)[C@@H](COC(=O)CC=C[C@H]1C)O2	0.807
COc1ccc(O[C@H]2C=C[C@@H](c3ccccc3)O[C@@H]2CON=C(C)CCN2CCc3nc(-c4ccccc4)c(-c4ccccc4)cc3C2)cc1	0.449
CC(=O)OC[C@H]1O[C@H](CC=NO[C@H](C)c2cn([C@H](CO)Cc3ccccc3)nn2)C=C[C@@H]1OC(C)=O	0.242
CCOC(=O)[C@H](CC(C)C)NC(=O)CCC1CC(OC(=O)NCc2cccc3ccccc23)CC2(CCCC(COC(=O)NCc3ccncc3)O2)O1 (stereo partly drawn)	-0.232
O=C(NN=C1C[C@@H](O)[C@@H](O)[C@@H]2[C@@H]3C(=O)N(C[C@@H]4CCCO4)C(=O)[C@@H]3CC[C@H]12)OCc1ccccc1	-0.136
O=C1[C@H]2[C@H]3[C@H](O)[C@H](O)CC(=NOC[C@@H](O)COCc4ccco4)[C@H]3CC[C@H]2C(=O)N1c1ccc(F)cc1F	0.474
COC(=O)CC=C[C@@H](C)[C@@H](C=NOC[C@@H](O)[C@H]1O[C@@H]2OC(C)(C)O[C@@H]2[C@H]1O)NS(=O)(=O)c1ccc(C)cc1	-0.687
CCOC(=O)[C@H](CC(C)C)NC(=O)CCC1CC(OC(=O)NCc2ccc3c(c2)OCO3)CC2(CCCC(COC(=O)NCC(c3ccccc3)c3ccccc3)O2)O1 (stereo partly drawn)	0.842
CCOC(=O)[C@H](Cc1ccccc1)NC(=O)CCC1CC(OC(=O)NCCc2ccc(F)cc2)CC2(CCCC(COC(=O)NCC3CCCCC3)O2)O1 (stereo partly drawn)	0.211
O=C1[C@H]2[C@H]3[C@H](O)[C@H](O)CC(=NOC[C@@H](O)COCc4ccco4)[C@H]3CC[C@H]2C(=O)N1Cc1ccccc1	1.57
CO[C@H]1COC(=O)[C@@H](C)COC(=O)[C@@H](OCc2ccccc2)C=C[C@@H]1C	0.409
COC(=O)[C@H](C)NC(=O)CCC1CC(OC(=O)NCCc2ccc(F)cc2)CC2(CCCC(COC(=O)NCCC(C)C)O2)O1 (stereo partly drawn)	-0.666
CO[C@H]1COC(=O)CC=C[C@H](C)[C@@H](OC)COC(=O)[C@@H](C)NC(=O)CC=C[C@@H]1C	0.789
COC(=O)CC=C[C@@H](C)[C@@H](C=NOC(C)CN1CCCc2nc(C)c(C)cc21)OC (stereo partly drawn)	-0.412
CCOC(=O)[C@H](CC(C)C)NC(=O)CCC1CC(OC(=O)NCc2ccc3c(c2)OCO3)CC2(CCCC(COC(=O)NCCCN3CCCC3=O)O2)O1 (stereo partly drawn)	0.217
CC(CCC(=O)OC[C@H]1O[C@H](C#Cc2ccccc2)C=C[C@@H]1Oc1ccc(C)cc1)=NO[C@H](C)c1cn([C@H](CO)Cc2ccccc2)nn1	0.151
CCOC(=O)[C@H](CC(C)C)NC(=O)CCC1CC(OC(=O)NCCc2ccc(F)cc2)CC2(CCCC(COC(=O)NCCc3ccccc3OC)O2)O1 (stereo partly drawn)	-0.285
CCOC(=O)CCN1C(=O)[C@H]2[C@H]3[C@H](O)[C@H](O)CC(=NNC(=O)OCc4ccccc4)[C@@H]3CC[C@H]2C1=O	-0.921
C=C(C)C(=O)OCC1CN2[C@@H](CC[C@@H](C)[C@@H]2c2ccc(Br)cc2)C(=O)O1 (stereo partly drawn)	0.679
